test system: A375 (melanoma); experiment: SRB cytotoxicity assay, A375; format: cell-based, human; settings: SI = EC50 (NIH 3T3)/EC50 (A375)
Here the recorded Selectivity index SI A375 is given for each entry.

# MOLECULE, TESTED_TARGET, Selectivity index SI A375
records = [
    ("C[C@H]1[C@H](C)CC[C@]2(C(=O)NCCNC(=O)CN3CCN(CC(=O)OC(C)(C)C)CCN(CC(=O)OC(C)(C)C)CCN(CC(=O)OC(C)(C)C)CC3)CC[C@]3(C)C(=CC[C@@H]4[C@@]5(C)CC[C@H](O)C(C)(C)[C@@H]5CC[C@]43C)[C@H]12 [compound 29]", "A375 (melanoma)", 1.15),
    ("CC(=O)O[C@H]1CC[C@@]2(C)C(CC[C@]3(C)C2CC=C2C4[C@@H](C)[C@H](C)CC[C@]4(C(=O)NCCNC(=O)CN4CCN(CC(=O)OC(C)(C)C)CCN(CC(=O)OC(C)(C)C)CCN(CC(=O)OC(C)(C)C)CC4)CC[C@]23C)C1(C)C (some centres unmarked) [compound 24]", "A375 (melanoma)", 0.70),
    ("CC(C)(C)OC(=O)CN1CCNCCN(CC(=O)OC(C)(C)C)CCN(CC(=O)OC(C)(C)C)CC1 [compound 6]", "A375 (melanoma)", 1.40),
    ("CC(=O)O[C@H]1CC[C@@]2(C)C(CC[C@]3(C)C2CC=C2C4[C@@H](C)[C@H](C)CC[C@]4(C(=O)N4CCN(C(=O)CN5CCN(CC(=O)OC(C)(C)C)CCN(CC(=O)OC(C)(C)C)CCN(CC(=O)OC(C)(C)C)CC5)CC4)CC[C@]23C)C1(C)C (some centres unmarked) [compound 22]", "A375 (melanoma)", 3.07),
]

Switching to the query record.
IN: Selectivity index SI A375 for O=C(CN1CCNCCN(CC(=O)OCc2ccccc2)CCN(CC(=O)OCc2ccccc2)CC1)OCc1ccccc1 [compound 7] ?
OUT: 0.96

* * *

test system: HT29 (colon adenocarcinoma); test: SRB cytotoxicity assay, HT29; format: cell-based, human; details: Homo sapiens, HT-29; SRB assay, 72 h of treatment
Structures can show the parent of a compound that is named as a salt.
Measured EC50 values are reported for all entries that follow.
Numbers only here, please. The scale is µM.

# annotated cases, reported EC50 shown
# MOLECULE, UNIT_TEXT, EC50
records = [
    ("CC(C)(C)OC(=O)CN1CCNCCN(CC(=O)OC(C)(C)C)CCN(CC(=O)OC(C)(C)C)CC1", "µM", 8.7),
    ("CC(=O)O[C@H]1CC[C@@]2(C)C(CC[C@]3(C)C2CC=C2C4[C@@H](C)[C@H](C)CC[C@]4(C(=O)NCCNC(=O)CN4CCN(CC(=O)OC(C)(C)C)CCN(CC(=O)OC(C)(C)C)CCN(CC(=O)OC(C)(C)C)CC4)CC[C@]23C)C1(C)C (some centres unmarked)", "µM", 2.3),
    ("CC(=O)O[C@H]1CC[C@@]2(C)C(CC[C@]3(C)C2CC=C2C4[C@@H](C)[C@H](C)CC[C@]4(C(=O)N4CCN(C(=O)CN5CCN(CC(=O)OC(C)(C)C)CCN(CC(=O)OC(C)(C)C)CCN(CC(=O)OC(C)(C)C)CC5)CC4)CC[C@]23C)C1(C)C (some centres unmarked)", "µM", 5.7),
]

IN: Requested read-out EC50, target or system HT29 (colon adenocarcinoma), entry COc1cccc2c1C(=O)c1c(O)c3c(c(O)c1C2=O)C[C@@](O)(C(=O)CO)C[C@@H]3O[C@H]1C[C@H](N)[C@H](O)[C@H](C)O1 [DRC, doxorubicin hydrochloride, reference compound]
OUT: 0.9

* * *

Selectivity index SI MCF-7 listing for selected compounds.
test system: MCF-7 (breast adenocarcinoma); assay: SRB cytotoxicity assay, MCF-7; type: cell-based, human; settings: SI = EC50 (NIH 3T3)/EC50 (MCF-7)
Just the number, please, no unit after it.

# COMPOUND, Selectivity index SI MCF-7
records = [
    ("CC(=O)O[C@H]1CC[C@]2(C)[C@H]3CC=C4[C@@H]5[C@@H](C)[C@H](C)CC[C@]5(C(=O)NCCN5CCN(C(=O)CN6CCN(CC(=O)OCc7ccccc7)CCN(CC(=O)OCc7ccccc7)CCN(CC(=O)OCc7ccccc7)CC6)CC5)CC[C@@]4(C)[C@]3(C)CC[C@H]2C1(C)C [compound 13]", 1.09),
]

IN: Which Selectivity index SI MCF-7 is listed for CC(=O)O[C@H]1CC[C@@]2(C)C(CC[C@]3(C)C2CC=C2C4[C@@H](C)[C@H](C)CC[C@]4(C(=O)NCCNC(=O)CN4CCN(CC(=O)OC(C)(C)C)CCN(CC(=O)OC(C)(C)C)CCN(CC(=O)OC(C)(C)C)CC4)CC[C@]23C)C1(C)C (some centres unmarked) [compound 24] ?
OUT: 0.78
